Assignment: determine reported IC50 for the given molecules.
System: P27-HUMAN MESOTHELIOMA
PROTOCOL_TEXT: Inhibition of cell growth: P27 human mesothelioma
Assay type: cell-based
TEST_CONDITIONS: 96 h, media, usually four days, read-out: MINIMUM INHIBITORY CONCENTRATIONS (RANGE) WHICH PRODUCE APPROXIMATELY 50% CELL GROWTH REDUCTION

Before answering, review these 4 worked examples.
OC(C#Cc1ccccc1)/C=C/c1ccccc1 (centres unmarked)	25 to 50 µg/mL
Oc1ccc(C#CC/C=C/c2ccc(O)c(O)c2)cc1O [Product 1, 3',3',4',4',-tetrahydroxyrooperol]	10 to 25 µg/mL
C(#Cc1ccccc1)C/C=C/c1ccccc1	25 to 50 µg/mL
COc1ccc(C#CC/C=C/c2ccc(OC)c(OC)c2)cc1OC	40 to 60 µg/mL

Here is another molecule to look at.
Q: Fill in reported IC50 for this entry: OC(C#Cc1ccccc1)/C=C/c1ccco1 (centres unmarked)
Ans: 20 to 50 µg/mL

----------
Assignment: determine reported IC50 for the given compounds.
System: HUMAN CERVICAL CANCER HeLa ATCC No. CCL2
PROTOCOL_TEXT: Inhibition of cell growth: human cervical cancer HeLa
Type: cell-based
TEST_CONDITIONS: 96 h, media, usually four days, read-out: MINIMUM INHIBITORY CONCENTRATIONS (RANGE) WHICH PRODUCE APPROXIMATELY 50% CELL GROWTH REDUCTION

Before answering, review these 2 worked examples.
OC(CCl)CC#Cc1ccccc1 (stereo not drawn)	25 to 50 µg/mL
C/C=C/C(O)C#CCO (stereo not drawn)	50 µg/mL

// for each compound below, give its IC50
1. C=CC(O)C#Cc1ccccc1 (stereo not drawn)
2. OC(C#Cc1ccccc1)/C=C/c1ccccc1 (stereo not drawn)
3. OC(C#Cc1ccccc1)C=C(Cl)c1ccccc1 (stereo not drawn)
4. COc1ccc(C#CC(O)/C=C/c2ccccc2)cc1OC (stereo not drawn)
5. C/C=C/C(O)C#CCOC1CCCCO1 (stereo not drawn)
6. COc1ccc(C#CC/C=C/c2ccccc2)cc1OC
7. C=CCC#CCOC1CCCCO1 (stereo not drawn)
8. O=C(C#Cc1ccccc1)/C=C/c1ccccc1

Ans:
["25 to 50 µg/mL", "25 to 50 µg/mL", "20 to 40 µg/mL", "25 to 50 µg/mL", "25 to 50 µg/mL", "60 to 100 µg/mL", "50 to 100 µg/mL", "5 to 10 µg/mL"]

// for each compound below, give its IC50
1. OC(C#Cc1ccccc1)/C=C/c1ccco1 (stereo not drawn)
2. C=CC(=O)C#Cc1ccccc1

Ans:
1. 20 to 25 µg/mL
2. 20 to 40 µg/mL

----------
PROTOCOL_TEXT: Acute toxicity in mice
TEST_CONDITIONS: mouse, in vivo, po, P.O., single dose in vegetable oil, 7 days observation, read-out: MINIMUM TOLERATED SINGLE DOSE
OUTCOME_MEASURE: MTD at 168 h (mg/kg)
Numbers only, in mg/kg.

Before answering, review these 4 worked examples.
OC(C#Cc1ccccc1)/C=C/c1ccccc1 (stereo not shown)	500
CCOC(=O)C(=Cc1ccccc1)CC#Cc1ccccc1	750
OC(C#Cc1ccccc1)C=C(Cl)c1ccccc1 (stereo not shown)	250
OC(C#Cc1ccccc1)/C=C/c1ccco1 (stereo not shown)	500

Q: Fill in reported MTD at 168 h for this entry: C(#Cc1ccccc1)C/C=C/c1ccccc1
Ans: 500

----------
Test system: HUMAN CERVICAL CANCER HeLa ATCC No. CCL2
PROTOCOL_TEXT: Inhibition of cell growth: human cervical cancer HeLa
Assay type: cell-based
TEST_CONDITIONS: 96 h, media, usually four days, read-out: MINIMUM INHIBITORY CONCENTRATIONS (RANGE) WHICH PRODUCE APPROXIMATELY 50% CELL GROWTH REDUCTION
OUTCOME_MEASURE: IC50

Before answering, review these 5 worked examples.
Brc1ccc(C#CC/C=C/c2ccccc2)cc1	25 to 50 µg/mL
C(#Cc1ccccc1)CC1CO1 (centres unmarked)	25 to 50 µg/mL
C=CCC#CCO	50 µg/mL
OCC#CC/C=C/c1ccccc1	25 to 50 µg/mL
Oc1ccc(C#CC/C=C/c2ccc(O)c(O)c2)cc1O [Product 1, 3',3',4',4',-tetrahydroxyrooperol]	20 to 40 µg/mL

// for each compound below, give its IC50
1. COc1ccc(C#CC/C=C/c2ccc(OC)c(OC)c2)cc1OC
2. COc1ccc(C#CC(O)/C=C/c2ccco2)cc1OC (centres unmarked)
3. C=CCC#Cc1ccccc1
4. CCOC(=O)C(=Cc1ccccc1)CC#Cc1ccccc1
5. COc1ccc(C#CC/C=C/c2ccccc2)cc1
6. C(#Cc1ccccc1)C/C=C/c1ccccc1

Ans:
1: 60 to 100 µg/mL; 2: 25 to 50 µg/mL; 3: 50 to 75 µg/mL; 4: 60 to 100 µg/mL; 5: 60 to 100 µg/mL; 6: 40 to 60 µg/mL

----------
PROTOCOL_TEXT: Acute toxicity in rats
TEST_CONDITIONS: rat, in vivo, po, P.O., single dose in vegetable oil, 7 days observation, read-out: MINIMUM TOLERATED SINGLE DOSE
OUTCOME_MEASURE: MTD at 168 h (mg/kg)
One number for each entry, in mg/kg.

// for each compound below, give its MTD at 168 h
1. C=CCC#Cc1ccccc1 [Product 2]
2. OC(C#Cc1ccccc1)/C=C/c1ccco1 (stereo not shown) [Product 17]
3. OC(C#Cc1ccccc1)/C=C/c1ccccc1 (stereo not shown) [Product 16]
4. C(#Cc1ccccc1)C/C=C/c1ccccc1 [Product 3]

Ans:
[500, 500, 500, 1500]

Values from patent US4644085A
